# Target under test: UniProtKB P47824
# Sequence (P47824 whole entry, looked up): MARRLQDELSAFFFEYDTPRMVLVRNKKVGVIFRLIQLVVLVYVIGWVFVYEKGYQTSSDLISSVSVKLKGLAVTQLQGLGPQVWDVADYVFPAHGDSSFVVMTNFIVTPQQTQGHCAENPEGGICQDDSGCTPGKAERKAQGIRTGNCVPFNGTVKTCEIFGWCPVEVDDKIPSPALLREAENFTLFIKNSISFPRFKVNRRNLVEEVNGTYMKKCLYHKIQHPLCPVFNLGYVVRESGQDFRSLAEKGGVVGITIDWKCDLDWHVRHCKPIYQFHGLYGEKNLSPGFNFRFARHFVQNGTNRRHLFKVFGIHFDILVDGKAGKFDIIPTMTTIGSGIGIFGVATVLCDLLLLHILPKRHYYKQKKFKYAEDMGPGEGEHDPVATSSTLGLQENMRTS
pIC50: −log10 of the molar value.
Measure name: pIC50

CNc1ncnc2c1ncn2[C@H]1C[C@H](OP(=O)(O)O)[C@@H](COP(=O)(O)O)O1	5.94
